meta.source: patent US20130029928A1

- EXPERIMENT DESCRIPTION: Phase I study CXR1002-001: plasma pharmacokinetics (LC-MS/MS)
- Assay type: in vivo, human
- RUN PARAMETERS: human, plasma, oral, 1200 mg, Patient 035, 1200 mg, person, plasma, 3 hr; read-out: Concentration
- Excerpt: PK samples, PD (fasting) samples, blood glucose, and blood triglyceride samples, were taken over a 6-week period. Dose limiting toxicity (DLT) will be based on the toxicity assessments over the first 3-week period of the repeat dosing schedule. […]
PROPERTY NAME: concentration at 3 hr (µM)
# unit: µM | format: bare number

Q) # concentration at 3 hr lookup, item O=C(O)C(F)(F)C(F)(F)C(F)(F)C(F)(F)C(F)(F)C(F)(F)C(F)(F)F [CXR1002]
A) 196

* * *

- EXPERIMENT DESCRIPTION: Phase I study CXR1002-001: plasma pharmacokinetics (LC-MS/MS)
- Format: in vivo, human
- RUN PARAMETERS: human, plasma, oral, 600 mg, Patient 020, 600 mg, person, plasma, 843 hr; read-out: Concentration
PROPERTY NAME: concentration at 843 h

Q) # concentration at 843 h lookup, item O=C(O)C(F)(F)C(F)(F)C(F)(F)C(F)(F)C(F)(F)C(F)(F)C(F)(F)F [CXR1002]
A) 764 µM

* * *

- EXPERIMENT DESCRIPTION: Phase I study CXR1002-001: plasma pharmacokinetics (LC-MS/MS)
- Format: in vivo, human
- RUN PARAMETERS: human, plasma, oral, 50 mg, Patient 004 Dose 50 mg; 192 hr (Day 9); read-out: Concentration
PROPERTY NAME: concentration at 192 h (µM)
# unit: µM | format: bare number

Q) # concentration at 192 h lookup, item O=C(O)C(F)(F)C(F)(F)C(F)(F)C(F)(F)C(F)(F)C(F)(F)C(F)(F)F [CXR1002]
A) 22.5

* * *

- EXPERIMENT DESCRIPTION: Phase I study CXR1002-001: plasma pharmacokinetics (LC-MS/MS)
- Type: in vivo, human
- RUN PARAMETERS: human, plasma, oral, 300 mg, Patient 014 Dose 300 mg; 840 hr (Day 36); read-out: Concentration
PROPERTY NAME: concentration at 840 h (µM)
# unit: µM | format: bare number

Q) # concentration at 840 h lookup, item O=C(O)C(F)(F)C(F)(F)C(F)(F)C(F)(F)C(F)(F)C(F)(F)C(F)(F)F [CXR1002]
A) 426

* * *

- EXPERIMENT DESCRIPTION: Phase I study CXR1002-001: plasma pharmacokinetics (LC-MS/MS)
- Format: in vivo, human
- RUN PARAMETERS: human, plasma, oral, 50 mg; after a single dose; 6 week sampling period; read-out: half-life of elimination
PROPERTY NAME: half-life

Q) # half-life lookup, item O=C(O)C(F)(F)C(F)(F)C(F)(F)C(F)(F)C(F)(F)C(F)(F)C(F)(F)F [CXR1002]
A) > 42 days

* * *

- EXPERIMENT DESCRIPTION: Phase I study CXR1002-001: plasma pharmacokinetics (LC-MS/MS)
- Type: in vivo, human
- RUN PARAMETERS: human, plasma, oral, 50 mg, Patient 004 Dose 50 mg; 339 hr; read-out: Concentration
PROPERTY NAME: concentration at 339 hr (µM)
# unit: µM | format: bare number

Q) # concentration at 339 hr lookup, item O=C(O)C(F)(F)C(F)(F)C(F)(F)C(F)(F)C(F)(F)C(F)(F)C(F)(F)F
A) 38.8
